measured.on: recombinant human ACC2 (Homo sapiens, UniProt O00763)
Construct: a cDNA encoding human ACC2 (27-2458) was cloned from human kidney cDNA library (Clontech); His-tag (N); made in house; host or cells: Sf-9 insect cells (Bac-to-Bac baculovirus)
Sequence (O00763 27-2458): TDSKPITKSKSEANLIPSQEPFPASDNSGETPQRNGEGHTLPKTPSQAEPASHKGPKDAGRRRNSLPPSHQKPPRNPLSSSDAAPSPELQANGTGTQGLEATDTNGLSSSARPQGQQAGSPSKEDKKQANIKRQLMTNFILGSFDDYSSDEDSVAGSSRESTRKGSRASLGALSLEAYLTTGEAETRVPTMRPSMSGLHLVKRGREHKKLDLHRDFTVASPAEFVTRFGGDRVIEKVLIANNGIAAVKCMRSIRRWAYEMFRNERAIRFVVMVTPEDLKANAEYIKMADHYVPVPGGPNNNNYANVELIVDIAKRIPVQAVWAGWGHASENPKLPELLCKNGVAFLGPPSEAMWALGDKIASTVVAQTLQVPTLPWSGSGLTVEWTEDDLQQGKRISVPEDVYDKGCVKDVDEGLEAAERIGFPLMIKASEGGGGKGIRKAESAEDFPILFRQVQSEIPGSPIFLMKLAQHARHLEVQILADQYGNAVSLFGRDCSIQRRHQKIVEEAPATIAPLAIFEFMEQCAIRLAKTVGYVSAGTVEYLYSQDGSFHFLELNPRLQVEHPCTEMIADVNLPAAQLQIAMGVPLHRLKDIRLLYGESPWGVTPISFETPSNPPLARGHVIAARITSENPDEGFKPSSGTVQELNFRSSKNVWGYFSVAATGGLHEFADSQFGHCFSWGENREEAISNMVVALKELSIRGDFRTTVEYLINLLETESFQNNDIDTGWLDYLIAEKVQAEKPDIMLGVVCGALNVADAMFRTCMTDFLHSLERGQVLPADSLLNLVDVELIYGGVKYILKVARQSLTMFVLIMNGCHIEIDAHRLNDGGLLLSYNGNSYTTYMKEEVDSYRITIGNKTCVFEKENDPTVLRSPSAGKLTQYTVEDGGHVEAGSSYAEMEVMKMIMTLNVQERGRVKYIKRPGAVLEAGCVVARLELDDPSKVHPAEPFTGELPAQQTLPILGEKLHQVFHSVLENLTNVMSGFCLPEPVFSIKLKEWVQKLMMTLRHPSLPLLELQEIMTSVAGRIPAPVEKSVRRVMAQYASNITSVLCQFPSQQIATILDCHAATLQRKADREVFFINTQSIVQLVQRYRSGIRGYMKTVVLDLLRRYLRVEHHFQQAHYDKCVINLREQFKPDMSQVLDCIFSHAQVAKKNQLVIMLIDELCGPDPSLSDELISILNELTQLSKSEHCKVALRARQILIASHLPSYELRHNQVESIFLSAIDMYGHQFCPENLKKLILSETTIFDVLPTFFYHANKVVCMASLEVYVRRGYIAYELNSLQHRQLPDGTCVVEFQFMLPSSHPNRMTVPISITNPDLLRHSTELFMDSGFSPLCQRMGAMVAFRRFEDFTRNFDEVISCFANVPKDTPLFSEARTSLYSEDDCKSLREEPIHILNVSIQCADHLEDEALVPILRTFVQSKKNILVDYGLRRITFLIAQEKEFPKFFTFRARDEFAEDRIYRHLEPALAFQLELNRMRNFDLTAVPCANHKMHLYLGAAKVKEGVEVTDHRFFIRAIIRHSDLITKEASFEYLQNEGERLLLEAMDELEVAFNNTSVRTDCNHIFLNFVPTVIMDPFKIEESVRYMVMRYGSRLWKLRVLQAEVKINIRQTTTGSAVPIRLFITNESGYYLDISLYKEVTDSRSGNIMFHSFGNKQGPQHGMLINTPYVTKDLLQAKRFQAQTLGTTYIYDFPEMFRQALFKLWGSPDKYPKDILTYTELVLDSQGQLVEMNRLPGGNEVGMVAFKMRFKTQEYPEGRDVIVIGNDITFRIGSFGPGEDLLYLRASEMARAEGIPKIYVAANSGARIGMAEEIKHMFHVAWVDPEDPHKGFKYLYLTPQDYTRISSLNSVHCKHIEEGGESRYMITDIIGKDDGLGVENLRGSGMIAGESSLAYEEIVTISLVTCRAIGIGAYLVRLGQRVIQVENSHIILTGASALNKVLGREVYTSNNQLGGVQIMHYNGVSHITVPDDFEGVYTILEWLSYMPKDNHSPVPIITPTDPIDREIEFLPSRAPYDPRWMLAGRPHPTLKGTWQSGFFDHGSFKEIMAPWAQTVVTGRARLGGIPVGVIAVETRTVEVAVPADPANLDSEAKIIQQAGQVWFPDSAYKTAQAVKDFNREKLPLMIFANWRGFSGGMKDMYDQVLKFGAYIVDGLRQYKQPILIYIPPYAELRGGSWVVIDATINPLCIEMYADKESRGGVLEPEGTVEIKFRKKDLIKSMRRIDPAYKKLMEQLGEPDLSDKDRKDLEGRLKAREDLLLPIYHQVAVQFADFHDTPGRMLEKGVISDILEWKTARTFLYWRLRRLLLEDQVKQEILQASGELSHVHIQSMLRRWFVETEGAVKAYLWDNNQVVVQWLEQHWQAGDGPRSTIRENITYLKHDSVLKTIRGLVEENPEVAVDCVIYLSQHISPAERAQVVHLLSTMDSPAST
protocol.description: Measurement of inhibitory activity on human ACC2 (MALDI-TOF MS, acetyl CoA to malonyl CoA conversion)
Type: biochemical
study.conditions: inhibition activity on human ACC2, Table 80; read-out: IC50
pIC50: −log10 of the molar value.
reported.property: pIC50

smiles_entry=CC(=O)Nc1cc(C(=O)N[C@@H](C)/C=C/c2cnc(Oc3ccc(OCC4CC4)cc3Cl)s2)ccn1 measured_number=7.38
smiles_entry=C[C@@H](/C=C/c1cnc(Oc2ccc(OCC3CC3)cc2Cl)s1)NC(=O)c1ccnc(NCCCN2CCCC2=O)c1 measured_number=7.14
smiles_entry=CCCOc1ccc(Oc2ncc(/C=C/[C@H](C)NC(=O)c3ccnc(N)c3)s2)c(Cl)c1 measured_number=6.55
smiles_entry=CCCOc1ccc(Oc2ncc(/C=C/[C@H](C)NC(=O)c3ccnc(N4CCOCC4)c3)s2)c(Cl)c1 measured_number=6.31
smiles_entry=Cc1ccc(-c2cc(C(=O)N[C@@H](C)/C=C/c3cnc(Oc4ccc(OCC5CC5)cc4Cl)s3)ccn2)o1 measured_number=6.20
smiles_entry=CCOCn1ccnc1-c1cc(C(=O)N[C@@H](C)/C=C/c2cnc(Oc3ccc(OCC4CC4)cc3Cl)s2)ccn1 measured_number=5.85
smiles_entry=CCOC(=O)c1cc(C(=O)N[C@@H](C)/C=C/c2cnn(Cc3ccc(OCC4CC4)cc3Cl)c2)ccn1 measured_number=7.23
smiles_entry=C[C@@H](/C=C/c1cnc(Oc2ccc(OCC3CC3)cc2Cl)s1)NC(=O)NCC(F)F measured_number=7.09
smiles_entry=CCCOc1ccc(Oc2ncc(/C=C/[C@H](C)NC(=O)c3ccncc3F)s2)c(Cl)c1 measured_number=6.07
smiles_entry=COCCNC(=O)N[C@@H](C)/C=C/c1cnc(Oc2ccc(OCC3CC3)cc2Cl)s1 measured_number=6.62
smiles_entry=CCN1Cc2ccc(C(=O)N[C@@H](C)/C=C/c3cnc(Oc4ccc(OCC5CC5)cc4Cl)s3)cc2C1=O measured_number=5.57
smiles_entry=CCOc1ccc(Oc2ccc(/C=C/[C@H](C)Nc3cc(C)on3)cn2)c(Cl)c1 measured_number=7.16
smiles_entry=C[C@@H](/C=C/c1cnc(Oc2ccc(OCC3CC3)cc2Cl)s1)NC(=O)c1ccnc(-c2ncco2)c1 measured_number=7.18
smiles_entry=C[C@@H](/C=C/c1cnc(Oc2ccc(OCC3CC3)cc2Cl)s1)NC(=O)NCC(F)(F)F measured_number=6.85
smiles_entry=C[C@@H](/C=C/c1cnc(Oc2ccc(OCC3CC3)cc2Cl)s1)NC(=O)c1ccnc(OCC(=O)O)c1 measured_number=6.24
smiles_entry=CCNC(=O)c1cc(C(=O)N[C@@H](C)/C=C/c2cnn(Cc3ccc(OCC4CC4)cc3Cl)c2)ccn1 measured_number=7.36
smiles_entry=CCCOc1ccc(Oc2ncc(/C=C/[C@H](C)NC(=O)c3ccncc3)s2)c(Cl)c1 measured_number=6.43
smiles_entry=Cc1nc(C)c(-c2cc(C(=O)N[C@@H](C)/C=C/c3cnc(Oc4ccc(OCC5CC5)cc4Cl)s3)ccn2)s1 measured_number=5.64
smiles_entry=CC(C)ONC(=O)c1cc(C(=O)N[C@@H](C)/C=C/c2cnc(Oc3ccc(OCC4CC4)cc3Cl)s2)ccn1 measured_number=7.16
smiles_entry=CCCOc1ccc(Oc2ncc(/C=C/[C@H](C)NC(=O)C3(C#N)CC3)s2)c(Cl)c1 measured_number=6.49
smiles_entry=C[C@@H](/C=C/c1cnc(Oc2ccc(OCC3CC3)cc2Cl)s1)NC(=O)c1ccnc(NCCO)c1 measured_number=6.39
smiles_entry=CC(C)S(=O)(=O)NCCCC(=O)N[C@@H](C)/C=C/c1cnc(Oc2ccc(OCC3CC3)cc2Cl)s1 measured_number=7.21
